ASSAY TEXT: Effect on Wnt signaling pathway in human SW480 cells harbouring TCF/LEF luciferase reporter gene and SP5-Luc reporter gene incubated for 36 to 48 hrs by luminescence assay
Assay type: cell-based
ENDPOINT: EC50 (nM)

[[record]]
substance_smiles = "CC(C)Nc1cncc(-c2ccc3[nH]nc(-c4cc5c(-c6cccnc6)cncc5[nH]4)c3c2)c1"
readout_units = "nM"
inequality_symbol = "="
meas_value = 670

[[record]]
substance_smiles = "CC(C)C(=O)Nc1cncc(-c2cc3c(-c4cc5c(-c6ccncc6)nccc5[nH]4)n[nH]c3cn2)c1"
readout_units = "nM"
inequality_symbol = ">"
meas_value = 10000

[[record]]
substance_smiles = "O=C(Nc1cncc(-c2cc3c(-c4cc5c(-c6cccc(F)c6)ccnc5[nH]4)n[nH]c3cn2)c1)C1CC1"
readout_units = "nM"
inequality_symbol = "="
meas_value = 9.7

[[record]]
substance_smiles = "Fc1cccc(-c2cncc3[nH]c(-c4n[nH]c5ccc(-c6cnccn6)nc45)nc23)c1"
readout_units = "nM"
inequality_symbol = ">"
meas_value = 10000

[[record]]
substance_smiles = "CCNCc1cncc(-c2cnc3[nH]nc(-c4cc5c(-c6cccnc6)ccnc5[nH]4)c3c2)c1"
readout_units = "nM"
inequality_symbol = ">"
meas_value = 10000

[[record]]
substance_smiles = "O=C(Nc1ccc(CN2CCCC2)cc1)c1n[nH]c2ccc(-c3cnn(C4CC4)c3)cc12"
readout_units = "nM"
inequality_symbol = "="
meas_value = 451

[[record]]
substance_smiles = "O=C(Nc1cncc(-c2ccc3[nH]nc(-c4cc5cnccc5[nH]4)c3c2)c1)C1CCCCC1"
readout_units = "nM"
inequality_symbol = "="
meas_value = 285

[[record]]
substance_smiles = "c1ncc(-c2ccc3[nH]nc(-c4cc5c(-c6ccoc6)nccc5[nH]4)c3c2)cn1"
readout_units = "nM"
inequality_symbol = "="
meas_value = 1910

[[record]]
substance_smiles = "Cc1ccncc1-c1cnc2[nH]nc(-c3nc4c(-c5cc(F)cc(CNS(C)(=O)=O)c5)nccc4[nH]3)c2c1"
readout_units = "nM"
inequality_symbol = "="
meas_value = 124

[[record]]
substance_smiles = "O=C(Nc1ccc(OCCN2CCCC2)cc1)c1n[nH]cc1/C=C/c1cccnc1"
readout_units = "nM"
inequality_symbol = "="
meas_value = 1850

[[record]]
substance_smiles = "CCCCC(=O)Nc1cncc(-c2ccc3[nH]nc(-c4nc5c(-c6cc(F)cc(NCCN(C)C)c6)cncc5[nH]4)c3n2)c1"
readout_units = "nM"
inequality_symbol = ">"
meas_value = 10000

[[record]]
substance_smiles = "Oc1cncc(-c2ccc3[nH]nc(-c4nc5c(-c6cccc(F)c6)ccnc5[nH]4)c3n2)c1"
readout_units = "nM"
inequality_symbol = "="
meas_value = 375

[[record]]
substance_smiles = "CC(C)CC(=O)Nc1cncc(-c2cc3c(-c4cc5cccnc5[nH]4)n[nH]c3cn2)c1"
readout_units = "nM"
inequality_symbol = ">"
meas_value = 10000

[[record]]
substance_smiles = "CC(C)CC(=O)Nc1cncc(-c2ccc3[nH]nc(-c4cc5c(N6CCN(C)CC6)ccnc5[nH]4)c3n2)c1"
readout_units = "nM"
inequality_symbol = "="
meas_value = 3450

[[record]]
substance_smiles = "O=C(Nc1c[nH]nc1C(=O)Nc1ccc(N2CCCCC2)nc1)c1cncc(OC2CCNCC2)c1"
readout_units = "nM"
inequality_symbol = "="
meas_value = 662

[[record]]
substance_smiles = "O=C1COc2cccc(c2)-c2cncc3[nH]c(nc23)-c2n[nH]c3ccc(cc23)-c2cncc(c2)N1"
readout_units = "nM"
inequality_symbol = "="
meas_value = 86.8

[[record]]
substance_smiles = "CN1CCN(c2ccnc3[nH]c(-c4n[nH]c5ncc(-c6cn[nH]c6)cc45)cc23)CC1"
readout_units = "nM"
inequality_symbol = ">"
meas_value = 10000

[[record]]
substance_smiles = "c1cncc(-c2ccc3[nH]nc(-c4nc5c(-c6ccoc6)cncc5[nH]4)c3c2)c1"
readout_units = "nM"
inequality_symbol = "="
meas_value = 45.4

[[record]]
substance_smiles = "CN(C)Cc1cncc(-c2cnc3[nH]nc(-c4cc5c(-c6cccc(F)c6)nccc5[nH]4)c3c2)c1"
readout_units = "nM"
inequality_symbol = "="
meas_value = 1170

[[record]]
substance_smiles = "O=C(Nc1ccc(CN2CCCC2)cc1)c1n[nH]cc1/C=C/c1cccnc1"
readout_units = "nM"
inequality_symbol = "="
meas_value = 988

[[record]]
substance_smiles = "CC(C)CC(=O)Nc1cncc(-c2cnc3[nH]nc(-c4nc5c(-c6cccc(F)c6)cncc5[nH]4)c3c2)c1"
readout_units = "nM"
inequality_symbol = "="
meas_value = 0.6

[[record]]
substance_smiles = "CN1CCN(c2cc(C(=O)Nc3cc4cc(-c5ccc(N)nc5)ccc4cn3)ccn2)CC1"
readout_units = "nM"
inequality_symbol = "="
meas_value = 710

[[record]]
substance_smiles = "c1cc2cc(c1)-c1cncc3[nH]c(nc13)-c1n[nH]c3ccc(cc13)-c1cncc(c1)CNC2"
readout_units = "nM"
inequality_symbol = "="
meas_value = 41.8

[[record]]
substance_smiles = "O=C(Nc1cncc(-c2cnc3[nH]nc(-c4cc5c(-c6ccccc6F)cncc5[nH]4)c3c2)c1)C1CC1"
readout_units = "nM"
inequality_symbol = "="
meas_value = 390

[[record]]
substance_smiles = "Nc1cncc(-c2ccc3[nH]nc(-c4nc5c(-c6ccccc6F)ccnc5[nH]4)c3n2)c1"
readout_units = "nM"
inequality_symbol = ">"
meas_value = 10000

[[record]]
substance_smiles = "Cc1ccc(-c2cccc3[nH]c(-c4n[nH]c5ccc(-c6cncc(N)c6)nc45)nc23)s1"
readout_units = "nM"
inequality_symbol = "="
meas_value = 66.3

[[record]]
substance_smiles = "O=C(Nc1ccc(OCCN2CCCC2)nc1)c1n[nH]cc1C#Cc1cccnc1"
readout_units = "nM"
inequality_symbol = "="
meas_value = 409

[[record]]
substance_smiles = "Cc1ccc(-c2nccc3[nH]c(-c4n[nH]c5ccc(-c6cncc(N)c6)nc45)nc23)s1"
readout_units = "nM"
inequality_symbol = "="
meas_value = 45.5

[[record]]
substance_smiles = "O=C(N[C@H]1C[C@@H]1c1ccccc1)c1n[nH]c2ccc(-c3cncc(CN4CCCCC4)c3)cc12"
readout_units = "nM"
inequality_symbol = "="
meas_value = 1030

[[record]]
substance_smiles = "Cc1ncc(-c2ccc3[nH]nc(-c4nc5c(-c6cc(F)cc(NCCN(C)C)c6)ccnc5[nH]4)c3n2)n1C"
readout_units = "nM"
inequality_symbol = "="
meas_value = 620

[[record]]
substance_smiles = "CC(C)C(=O)Nc1cncc(-c2cnc3[nH]nc(-c4cc5c(-c6cc(F)cc(CNS(C)(=O)=O)c6)cncc5[nH]4)c3c2)c1"
readout_units = "nM"
inequality_symbol = ">"
meas_value = 10000

[[record]]
substance_smiles = "O=C(CC1CCNCC1)Nc1cncc(-c2cc3c(-c4nc5c(-c6cccc(F)c6)ccnc5[nH]4)n[nH]c3cn2)c1"
readout_units = "nM"
inequality_symbol = "="
meas_value = 345

[[record]]
substance_smiles = "NC1CN(c2cncc(-c3ccc4[nH]nc(-c5nc6ccncc6[nH]5)c4c3)n2)C1"
readout_units = "nM"
inequality_symbol = "="
meas_value = 344

[[record]]
substance_smiles = "Cc1ccncc1-c1ccc2[nH]nc(-c3cc4ccncc4[nH]3)c2c1"
readout_units = "nM"
inequality_symbol = "="
meas_value = 191

[[record]]
substance_smiles = "CC(C)CC(=O)Nc1cncc(-c2cnc3[nH]nc(-c4cc5c(-c6ccncc6)cccc5[nH]4)c3c2)c1"
readout_units = "nM"
inequality_symbol = "="
meas_value = 711


All values here come from ChEMBL document CHEMBL4739717.
